biological target: IRAK1 (Homo sapiens, UniProt P51617); experiment: RBC HotSpot Kinase Assay, IRAK1; conditions: isolated kinase, 33P-ATP
Sequence (P51617 whole entry): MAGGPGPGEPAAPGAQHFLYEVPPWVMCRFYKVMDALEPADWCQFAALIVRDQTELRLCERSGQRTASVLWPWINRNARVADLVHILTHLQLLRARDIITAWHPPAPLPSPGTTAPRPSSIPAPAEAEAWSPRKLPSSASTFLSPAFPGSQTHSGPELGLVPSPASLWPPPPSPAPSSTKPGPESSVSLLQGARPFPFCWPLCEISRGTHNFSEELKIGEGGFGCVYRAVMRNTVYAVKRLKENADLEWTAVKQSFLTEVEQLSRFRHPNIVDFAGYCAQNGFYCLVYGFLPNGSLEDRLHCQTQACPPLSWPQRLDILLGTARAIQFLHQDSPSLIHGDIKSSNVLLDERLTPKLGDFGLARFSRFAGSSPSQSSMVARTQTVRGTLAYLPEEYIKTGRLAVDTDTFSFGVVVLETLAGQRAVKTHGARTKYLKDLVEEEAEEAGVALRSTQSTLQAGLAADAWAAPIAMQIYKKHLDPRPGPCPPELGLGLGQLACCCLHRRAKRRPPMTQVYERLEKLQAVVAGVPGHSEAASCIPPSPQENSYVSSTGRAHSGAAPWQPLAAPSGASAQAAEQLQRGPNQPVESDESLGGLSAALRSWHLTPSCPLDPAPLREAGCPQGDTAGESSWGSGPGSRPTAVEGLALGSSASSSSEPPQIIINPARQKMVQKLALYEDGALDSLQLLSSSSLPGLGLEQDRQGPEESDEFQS
pIC50: −log10 of the molar value.
readout label: pIC50

Illustrative cases are given below, each with its answer.
O=C1CCCN1c1cn2c(-c3nc(N[C@@H]4CCCNC4)c(F)cc3F)cnc2cn1 | 6.96
F[C@H]1CCNC[C@@H]1Nc1cccc(-c2cnc3cnccn23)n1 | 6.16
O=C1CCCCN1c1cn2c(-c3cccc(N[C@@H]4CCCNC4)n3)cnc2cn1 | 5.00
CC(O)(c1cn2c(-c3cc(F)cc(N[C@H]4CNCC[C@@H]4F)n3)cnc2cn1)C(F)(F)F (single isomer, unassigned) [Compound 86] | 6.84

(a) F[C@H]1CCNC[C@@H]1Nc1cccc(-c2cnc3cnc(C4(C(F)(F)F)CC4)cn23)n1
(b) CC(O)(c1cn2c(-c3cc(F)cc(N[C@H]4CNC[C@@H]4F)n3)cnc2cn1)C(F)(F)F (single isomer, unassigned) [Compound 83]
(c) O=S1(=O)CCCN1c1cn2c(-c3nc(N[C@@H]4CCCNC4)c(F)cc3F)cnc2cn1
(d) FC(F)(F)C1(c2cn3c(-c4cccc(N[C@H]5CNCC56CC6)n4)cnc3cn2)CC1
(e) O=C1CCCCN1c1cn2c(-c3cccc(N[C@H]4CNCC[C@@H]4F)n3)cnc2cn1
Asked: Put the items in order so that reported pIC50 rises from first to last. # format: label list in the order the request specifies
Given back: e, b, d, a, c

(a) CC(C)(O)c1cn2c(-c3cccc(N[C@H]4CNCC[C@@H]4F)n3)cnc2cn1
(b) O=C1CC2(COC2)CN1c1cn2c(-c3cccc(N[C@H]4CNC[C@@H]4F)n3)cnc2cn1
Asked: # query: argmin of pIC50 over a and b # respond with the chosen item's label
Given back: b
